- Test system: Zymoseptoria tritici (SEPTTR-184)
- EXPERIMENT NOTES: Cyp51 dsRNA tile (fragment) foliar application bioassay (Example 6)
- Assay type: in vivo
- DETAILS: 1 day protectant; calculated from disease control
PARAMETER MEASURED: ED50 (ppm) SEPTTR-184 1DP

Challenge: Return ED50 (ppm) SEPTTR-184 1DP for the following molecule: MgCyp51-T1: dsRNA tile of Zymoseptoria tritici Cyp51, 232 bp, location 166-397 (nucleic acid, listed as Zymoseptoria tritici) GTATTCCACTGGGTGCCCTTCATCGGAAGCACCATCACATACGGCATCGACCCATACAAGTTCTTCTTCTCCTGTCGGGAAAAGTATGGAGATGTCTTTACATTCATCCTGCTGGGAAAGAAGACGACGGTGTGCTTGGGCACCAAGGGCAATGATTTTATTTTGAATGGAAAACTGAAGGACGTCAACGCGGAGGAGATATACAGCCCGCTGACCACTCCTGTCTTTGGCA
Response given: <3.125 ppm
